- System: Klebsiella pneumonia
- testSummary: Biofilm inhibition, crystal violet method
- Type: cell-based
observable: Biofilm inhibition (%)
Give the value, in units of %, as a plain number.

Query block: Find the recorded Biofilm inhibition belonging to COc1ccc(C=NNC(=O)CSc2nc3c(C)cccc3c(=O)n2-c2ccccc2)cc1OS(C)(=O)=O and report it.
Result block: 32.8

Query block: # Biofilm inhibition lookup, item CCS(=O)(=O)Oc1ccc(C=NNC(=O)CSc2nc3ccc(Cl)cc3c(=O)n2-c2ccccc2)cc1
Result block: 53.1

Query block: Suppose we examine the compound O=C(O)c1cn(C2CC2)c2cc(N3CCNCC3)c(F)cc2c1=O [Ciprofloxacin, reference compound] ; what Biofilm inhibition value has been reported?
Result block: 40.8

Query block: # input compound: CCCS(=O)(=O)Oc1ccc(C=NNC(=O)CSc2nc3c(C)cccc3c(=O)n2-c2ccccc2)cc1OC ; wanted: its Biofilm inhibition
Result block: 59.6

* * *

- Test system: Staphylococcus aureus
- testSummary: Biofilm inhibition, crystal violet method
- Type: cell-based
observable: Biofilm inhibition
State the result as a value with its unit after it.

Query block: Provide the documented Biofilm inhibition with Staphylococcus aureus as the system for CCS(=O)(=O)Oc1ccc(C=NNC(=O)CSc2nc3ccc(Cl)cc3c(=O)n2-c2ccccc2)cc1
Result block: 42.9 ± 2.62%

Query block: Notebook entry, Staphylococcus aureus assay: Biofilm inhibition of O=C(O)c1cn(C2CC2)c2cc(N3CCNCC3)c(F)cc2c1=O [Ciprofloxacin, reference compound] = ?
Result block: 30.9 ± 4.52%

Query block: Request body: readout Biofilm inhibition, system Staphylococcus aureus, query COc1ccc(C=NNC(=O)CSc2nc3c(C)cccc3c(=O)n2-c2ccccc2)cc1OS(C)(=O)=O . Return the value.
Result block: 34.7 ± 4.02%

Query block: Kindly state the measured Biofilm inhibition obtained for CCCS(=O)(=O)Oc1ccc(C=NNC(=O)CSc2nc3c(C)cccc3c(=O)n2-c2ccccc2)cc1OC with Staphylococcus aureus.
Result block: 45.1 ± 1.62%

* * *

What follows is a record of MIC for Klebsiella pneumonia.
Your answer should be a plain number; it is taken to be in µg/mL.

Query block: Request: MIC, test system Klebsiella pneumonia, entry CCCS(=O)(=O)Oc1ccc(C=NNC(=O)CSc2nc3c(C)cccc3c(=O)n2-c2ccccc2)cc1OC
Result block: 22

Query block: Kindly state the measured MIC obtained for Nc1ccc(S(=O)(=O)Nc2ncccn2)cc1 [Sulfadiazine, reference compound] with Klebsiella pneumonia.
Result block: 47

Query block: Request body: readout MIC, system Klebsiella pneumonia, query COc1ccc(C=NNC(=O)CSc2nc3c(C)cccc3c(=O)n2-c2ccccc2)cc1OS(C)(=O)=O . Return the value.
Result block: 99

Query block: Reported MIC for Klebsiella pneumonia, given CCS(=O)(=O)Oc1ccc(C=NNC(=O)CSc2nc3ccc(Cl)cc3c(=O)n2-c2ccccc2)cc1 ?
Result block: 44

* * *

- Tested on: Staphylococcus aureus
- testSummary: Bacterial lipid peroxidation
- Assay type: cell-based
- conditionSummary: treated at the MIC level
Hi there, I'd appreciate the recorded Lipid peroxidation efficiency for every entry that follows.
Response body: numeric value in %, unit text excluded.

Query block: So what's the measured Lipid peroxidation efficiency for this one? CCS(=O)(=O)Oc1ccc(C=NNC(=O)CSc2nc3ccc(Cl)cc3c(=O)n2-c2ccccc2)cc1
Result block: 202.2

Query block: Need Lipid peroxidation efficiency of O=C(O)c1cn(C2CC2)c2cc(N3CCNCC3)c(F)cc2c1=O [Ciprofloxacin, reference compound] , thanks.
Result block: 319.8

Query block: Return reported Lipid peroxidation efficiency; argument: CCCS(=O)(=O)Oc1ccc(C=NNC(=O)CSc2nc3c(C)cccc3c(=O)n2-c2ccccc2)cc1OC
Result block: 151.2

Query block: Field request: Lipid peroxidation efficiency | item: COc1ccc(C=NNC(=O)CSc2nc3c(C)cccc3c(=O)n2-c2ccccc2)cc1OS(C)(=O)=O
Result block: 118.4
